- TARGET_OR_SYSTEM: PARP-1 enzyme (Homo sapiens, UniProt P09874)
- Construct: made in house
- Sequence (P09874 whole entry): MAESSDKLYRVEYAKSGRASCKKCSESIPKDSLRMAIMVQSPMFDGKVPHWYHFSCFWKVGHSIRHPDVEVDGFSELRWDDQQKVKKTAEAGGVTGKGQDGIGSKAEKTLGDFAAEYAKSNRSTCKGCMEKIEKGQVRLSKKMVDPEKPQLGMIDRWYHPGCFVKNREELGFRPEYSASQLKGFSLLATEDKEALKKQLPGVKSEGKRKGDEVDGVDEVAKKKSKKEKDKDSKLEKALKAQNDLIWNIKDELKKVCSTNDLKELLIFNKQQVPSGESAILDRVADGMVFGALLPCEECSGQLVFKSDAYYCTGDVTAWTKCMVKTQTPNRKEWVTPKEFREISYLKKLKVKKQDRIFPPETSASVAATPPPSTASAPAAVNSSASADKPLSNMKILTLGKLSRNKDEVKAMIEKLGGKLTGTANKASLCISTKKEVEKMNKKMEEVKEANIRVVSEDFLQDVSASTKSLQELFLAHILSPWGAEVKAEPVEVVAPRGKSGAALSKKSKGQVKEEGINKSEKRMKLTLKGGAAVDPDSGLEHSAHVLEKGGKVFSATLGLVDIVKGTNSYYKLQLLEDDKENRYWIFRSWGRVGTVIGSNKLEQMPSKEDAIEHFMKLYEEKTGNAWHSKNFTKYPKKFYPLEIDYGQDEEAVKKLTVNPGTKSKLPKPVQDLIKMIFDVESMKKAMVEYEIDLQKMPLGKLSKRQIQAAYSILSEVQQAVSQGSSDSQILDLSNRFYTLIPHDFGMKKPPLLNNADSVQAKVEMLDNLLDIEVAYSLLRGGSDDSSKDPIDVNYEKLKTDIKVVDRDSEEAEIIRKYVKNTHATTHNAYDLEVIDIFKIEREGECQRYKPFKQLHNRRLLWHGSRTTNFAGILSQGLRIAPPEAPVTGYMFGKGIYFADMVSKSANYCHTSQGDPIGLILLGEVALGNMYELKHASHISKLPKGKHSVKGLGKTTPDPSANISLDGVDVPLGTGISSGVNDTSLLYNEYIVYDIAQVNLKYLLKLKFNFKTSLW
- PROCEDURE_DETAILS: in vitro Scintillation Proximity Assay (SPA) for PARP-1 inhibitory activity
- Type: biochemical
- MEASUREMENT_SETUP: [3H]-NAD+, biotinylated histones, nicked DNA; dose-response 10^-5 M to 10^-8 M; read-out: in vitro SPA assay PARP-1 pIC50 (converted)
RECORDED_METRIC: IC50 (nM)
Note: unit nM is implicit; provide only the numeric part.

Some solved entries appear below for comparison.
1. CN(c1nc2ccccc2s1)C1CCN(c2nnc(Cl)c3ccccc23)CC1
1290
2. O=c1[nH]nc(NC2CCN(Cc3ccccc3)C2)c2ccccc12 (stereo not drawn)
432
3. O=c1[nH]nc(NC2CCCN(Cc3ccccc3)C2)c2ccccc12 (stereo not drawn)
1070
4. Clc1nnc(NC2CCN(Cc3ccccc3)C2)c2ccccc12 (stereo not drawn)
1140

Short answer please: IC50, PARP-1 enzyme (Homo sapiens, UniProt P09874), entry O=c1[nH]nc(NC2CCCNCC2)c2ccccc12 (stereo not drawn)
120

Quick check: IC50 on PARP-1 enzyme (Homo sapiens, UniProt P09874), item O=c1[nH]nc(NCC2CCCN(Cc3ccccc3)C2)c2ccccc12 (stereo not drawn) ?
1120

Record Cc1nc2ccccn2c(=O)c1CCN1CCN(c2nnc(C)c3ccccc23)CC1 : what is its IC50 with PARP-1 enzyme (Homo sapiens, UniProt P09874)?
8970

Can you look up IC50 on PARP-1 enzyme (Homo sapiens, UniProt P09874) for Cc1nc2sccn2c(=O)c1CCN1CCN(c2nnc(C)c3ccccc23)CC1 ?
1900

Param readout = IC50; param system = PARP-1 enzyme (Homo sapiens, UniProt P09874); param query = O=c1[nH]nc(N2CCN(CCCC(c3ccc(F)cc3)c3ccc(F)cc3)CC2)c2ccccc12 ; response: value
435

###

- TARGET_OR_SYSTEM: PARP-1 enzyme (Homo sapiens, UniProt P09874)
- Construct: made in house
- PROCEDURE_DETAILS: in vitro filtration assay for PARP-1 inhibitory activity
- Format: biochemical
- MEASUREMENT_SETUP: [32P]-NAD, histones, nicked DNA; dose-response 10^-5 M to 10^-8 M; read-out: in vitro filter assay PARP-1 pIC50 (converted)
Measured log10 of IC50 accompanies every entry in the list below.
Form field - Quantity: IC50; Unit: nM; Scale: log10

Given CCOC(=O)N1[C@@H]2CC[C@H]1C[C@H](Nc1n[nH]c(=O)c3ccccc13)C2 [Compound 11] , state its recorded log10 of IC50.
1.48

Which value of log10 of IC50 has been reported for O=c1[nH]nc(C2CCN(C[C@H](O)[C@@H]3CCc4ccccc4O3)CC2)c2ccccc12 (relative stereo) [Compound 28] in the records?
1.66

Recorded log10 of IC50 of O=c1[nH]nc(NCC2CCCN(CCCC(c3ccc(F)cc3)c3ccc(F)cc3)C2)c2ccccc12 (centres unmarked) [Compound 49] , please.
2.71

Name the reported log10 of IC50 value associated with the molecule O=c1[nH]nc(C2CCN(c3ccc(Cl)nn3)CC2)c2ccccc12 [Compound 62]
1.59

What does the data say about its log10 of IC50? Entry: O=c1[nH]nc(N[C@H]2CCN[C@@H](Cc3ccccc3)C2)c2ccccc12 (single isomer, unassigned) [Compound 35]
2.25

Entry under review: O=c1[nH]nc(NC2CC(Cc3ccccc3)NC(Cc3ccccc3)C2)c2ccccc12 (centres unmarked) [Compound 38] . Reported log10 of IC50?
2.17

Which log10 of IC50 is reported for this molecule? O=c1[nH]nc(NC2CCCNCC2)c2ccccc12 (centres unmarked) [Compound 34]
1.69

State the recorded log10 of IC50 for this entry: Cc1nc2scc(C)n2c(=O)c1CCN1CCN(c2nnc(C)c3ccccc23)CC1 [Compound 74]
2.79

###

- TARGET_OR_SYSTEM: PARP-1 enzyme (Homo sapiens, UniProt P09874)
- Construct: made in house
- PROCEDURE_DETAILS: in vitro filtration assay for PARP-1 inhibitory activity
- Assay type: biochemical
- MEASUREMENT_SETUP: [32P]-NAD, histones, nicked DNA; dose-response 10^-5 M to 10^-8 M; read-out: in vitro filter assay PARP-1 pIC50 (converted)
- Procedure: In Vitro Filtration Assay for PARP-1 Inhibitory Activity Compounds of the present invention were tested in an in vitro filtration assay assessing PARP-1 activity (triggered in the presence of nicked DNA) by means of its histone poly (ADP-ribosylation activity using [^32P]-NAD as ADP-ribosyl donor. The radioactive ribosylated histones were precipitated by trichloroacetic acid (TCA) in 96-well filterplates and the incorporated [^32P] measured using a scintillation counter […]
# maps each entry to its IC50
Only the number, expressed in nM, is required.

Field: example entries. Status: answers known.
1. CN(c1cc2ccccc2s1)C1CCN(c2n[nH]c(=O)c3ccccc23)CC1
91.8
2. O=c1[nH]nc(C2CCN(CC(O)COc3ccc(F)c(F)c3)CC2)c2ccccc12 (centres unmarked)
17.3
3. NCC1CCN(c2n[nH]c(=O)c3ccccc23)CC1
15.5
4. N#CCN1CCN(c2n[nH]c(=O)c3ccccc23)CC1
109

Attention now turns to another entry.
Please report the recorded IC50 for COc1ccc(CCN2CCC(Nc3n[nH]c(=O)c4ccccc34)CC2)cc1 .
146

###

- TARGET_OR_SYSTEM: PARP-1 enzyme (Homo sapiens)
- Construct: made in house
- PROCEDURE_DETAILS: in vitro Scintillation Proximity Assay (SPA) for PARP-1 inhibitory activity
- Type: biochemical
- MEASUREMENT_SETUP: [3H]-NAD+, biotinylated histones, nicked DNA; dose-response 10^-5 M to 10^-8 M; read-out: in vitro SPA assay PARP-1 pIC50 (converted)
RECORDED_METRIC: IC50 (nM)
// return numeric value only (unit: nM, not printed)

// known answers, use as guide
1. O=c1[nH]nc(C2CCNCC2)c2ccccc12
251
2. CCOC(=O)N1[C@@H]2CC[C@H]1C[C@H](Nc1nnc(Cl)c3ccccc13)C2
973
3. CCOC(=O)N1CCCC(Nc2n[nH]c(=O)c3ccccc23)CC1 (stereo not shown)
2510
4. CCOC(=O)N1[C@@H]2CC[C@H]1C[C@H](Nc1n[nH]c(=O)c3ccccc13)C2
86.7
5. O=c1[nH]nc(NC2CCN(C/C=C/c3ccccc3)CC2)c2ccccc12
851
6. O=c1[nH]nc(NC2CCCN(CCCC(c3ccc(F)cc3)c3ccc(F)cc3)CC2)c2ccccc12 (stereo not shown)
442

Could you share which IC50 value was measured for Clc1nnc(N2CCN(c3ccccc3)CC2)c2ccccc12 ?
1320

###

Structures can show the parent of a compound that is named as a salt.
# note: boundary value 200 °C maps to no; melting point below it maps to yes

1. O=c1[nH]nc(N[C@@H]2C[C@H]3CC[C@@H](C2)N3)c2ccccc12 (as salt: HBr)
no
2. NC(=O)N1CCC(c2n[nH]c(=O)c3ccccc23)CC1
no
3. CCOC(=O)N1[C@@H]2CC[C@H]1C[C@H](Nc1n[nH]c(=O)c3ccccc13)C2
no
4. N#CC1CCN(c2n[nH]c(=O)c3ccccc23)CC1
no
5. O=c1[nH]nc(C2CCNCC2)c2ccccc12 (hydrate or solvate)
no

Does the reported melting point of O=c1[nH]nc(N[C@H]2CCN[C@@H](Cc3ccccc3)C2)c2ccccc12 stay below 200 °C?
no

For this compound, is melting point lower than 200 °C? NCC1CCN(c2n[nH]c(=O)c3ccccc23)CC1
yes

Strictly below 200 °C: is that where melting point of Nc1ccc2c(=O)[nH]nc(NC3CCNCC3)c2c1 (as salt: HCl) (hydrate or solvate) sits?
no

I wonder whether CCOC(=O)N1CC[C@H](Nc2n[nH]c(=O)c3ccccc23)C[C@@H]1Cc1ccccc1 has melting point below 200 °C. Can you tell?
yes

###

- TARGET_OR_SYSTEM: PARP-1 enzyme (Homo sapiens, UniProt P09874)
- Construct: made in house
- PROCEDURE_DETAILS: in vitro Scintillation Proximity Assay (SPA) for PARP-1 inhibitory activity
- Format: biochemical
- MEASUREMENT_SETUP: [3H]-NAD+, biotinylated histones, nicked DNA; dose-response 10^-5 M to 10^-8 M; read-out: in vitro SPA assay PARP-1 pIC50 (converted)
Mark each entry 1.0 if its IC50 sits below 800 nM, and 0.0 for all others.

Example cases with answers are listed next.
1) O=c1[nH]nc(NCC2CCCN(CCCC(c3ccc(F)cc3)c3ccc(F)cc3)C2)c2ccccc12 (stereo not drawn) [Compound 49]
0.0
2) O=c1[nH]nc(C2CCN(Cc3ccccc3)CC2)c2ccccc12 [Compound 1]
1.0
3) O=c1[nH]nc(N[C@@H]2C[C@H]3CC[C@@H](C2)N3)c2ccccc12 [Compound 15]
1.0
4) O=c1[nH]nc(NC2CCN(CCCCOc3ccccc3)CC2)c2ccccc12 [Compound 46]
0.0
5) CCOC(=O)N1CCN(c2nnc(Cl)c3ccccc23)CC1 [Compound 58]
0.0

Field: below-cutoff. Rule: recorded IC50 strictly less than 800 nM. Subject: O=c1[nH]nc(C2CCN(c3ncccn3)CC2)c2ccccc12 [Compound 69]
0.0

Report whether reported IC50 is lower than 800 nM (strictly) for O=c1[nH]nc(C2CCN(CCCC(c3ccc(F)cc3)c3ccc(F)cc3)CC2)c2ccccc12 [Compound 67]
1.0

Dear colleague, could you confirm whether IC50 of CCOC(=O)N1CCC(Nc2n[nH]c(=O)c3ccccc23)CC1 [Compound 56] falls below 800 nM? Thanks.
0.0

For O=c1[nH]nc(C2CCN(C/C=C/c3ccccc3)CC2)c2ccccc12 [Compound 66] , is the recorded IC50 below the cut-off of 800 nM?
1.0
